target.or.system: T1, mouse GPNMB endogenously expressed on B16F10 cells (mouse, UniProt Q99P91 23-574)
T1 construct: whole, on cells; also called moGPNMB
T1 sequence (looked up): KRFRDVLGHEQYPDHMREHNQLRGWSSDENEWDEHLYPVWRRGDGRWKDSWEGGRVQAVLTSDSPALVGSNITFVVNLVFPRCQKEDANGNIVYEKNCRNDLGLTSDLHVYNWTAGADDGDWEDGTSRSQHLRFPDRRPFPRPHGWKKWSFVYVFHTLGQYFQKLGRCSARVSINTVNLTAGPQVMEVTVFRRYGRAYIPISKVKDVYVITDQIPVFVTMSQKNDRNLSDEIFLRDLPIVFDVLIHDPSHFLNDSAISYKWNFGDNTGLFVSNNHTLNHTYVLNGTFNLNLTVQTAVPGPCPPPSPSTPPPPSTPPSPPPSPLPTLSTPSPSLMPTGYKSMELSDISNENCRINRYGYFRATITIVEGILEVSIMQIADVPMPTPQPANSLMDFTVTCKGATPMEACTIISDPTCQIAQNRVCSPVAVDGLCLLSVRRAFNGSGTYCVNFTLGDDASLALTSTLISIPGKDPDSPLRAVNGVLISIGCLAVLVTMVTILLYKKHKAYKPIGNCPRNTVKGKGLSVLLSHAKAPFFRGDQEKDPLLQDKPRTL
measurement.protocol: FACS, B16F10 cells
metric: MFI fold over background (fold)
Entry rule: numbers only, all in fold.

Value of measured MFI fold over background for the entry anti-GPNMB antibody GPN-06 (antibody, human IgG1, V domains shown, chimeric) VH: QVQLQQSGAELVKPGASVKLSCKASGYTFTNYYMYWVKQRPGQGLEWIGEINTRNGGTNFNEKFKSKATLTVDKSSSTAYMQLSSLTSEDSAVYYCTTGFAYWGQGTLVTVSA VL: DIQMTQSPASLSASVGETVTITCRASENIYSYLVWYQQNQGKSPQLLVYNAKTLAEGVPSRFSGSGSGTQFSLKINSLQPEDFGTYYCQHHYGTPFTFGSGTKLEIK : 1

The recorded MFI fold over background for anti-GPNMB antibody GPN-25 (antibody, human IgG1, V domains shown, chimeric) VH: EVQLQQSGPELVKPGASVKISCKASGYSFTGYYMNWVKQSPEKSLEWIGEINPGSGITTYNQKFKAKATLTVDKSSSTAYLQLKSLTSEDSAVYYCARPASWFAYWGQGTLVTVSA VL: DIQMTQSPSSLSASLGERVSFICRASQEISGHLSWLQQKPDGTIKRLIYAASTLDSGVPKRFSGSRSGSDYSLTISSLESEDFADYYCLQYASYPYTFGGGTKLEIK is 1
